system: EBC-1; assay: relative viability (nuclei count vs DMSO), 5 days (fraction); higher = more cells survive; conditions: first compound 0.6325 µM
quantity_measured: relative viability
// response body must contain only the number

Example entries begin here.
# compound, relative viability
records = [
    ("CN1CCN(CCOc2cc(OC3CCOCC3)c3c(Nc4c(Cl)ccc5c4OCO5)ncnc3c2)CC1 [Saracatinib] + CS(=O)(=O)CCNCc1ccc(-c2ccc3ncnc(Nc4ccc(OCc5cccc(F)c5)c(Cl)c4)c3c2)o1 [Lapatinib] (partner 2 µM)", 0.197),
    ("Cc1csc(=NC2CCCCC2)n1/N=C/c1ccc(O)c(O)c1O [MIM1] + CC1(C)CCC(c2ccc(Cl)cc2)=C(CN2CCN(c3ccc(C(=O)NS(=O)(=O)c4ccc(N[C@H](CCN5CCOCC5)CSc5ccccc5)c(S(=O)(=O)C(F)(F)F)c4)cc3)CC2)C1 [Navitoclax] (partner 0.5 µM)", 0.475),
    ("CN1CCN(CCOc2cc(OC3CCOCC3)c3c(Nc4c(Cl)ccc5c4OCO5)ncnc3c2)CC1 [Saracatinib] + CC(C)C[C@H](NC(=O)[C@H](Cc1ccccc1)NC(=O)c1cnccn1)B(O)O [Bortezomib] (partner 0.002 µM)", 0.628),
    ("Cc1csc(=NC2CCCCC2)n1/N=C/c1ccc(O)c(O)c1O [MIM1] + O=C(c1cc(Cc2n[nH]c(=O)c3ccccc23)ccc1F)N1CCN(C(=O)C2CC2)CC1 [Olaparib] (partner 8 µM)", 0.742),
    ("CN1CCN(CCOc2cc(OC3CCOCC3)c3c(Nc4c(Cl)ccc5c4OCO5)ncnc3c2)CC1 [Saracatinib] + C[C@]1(O)C[C@@H](c2nc(-c3ccc4ccc(-c5ccccc5)nc4c3)c3c(N)nccn32)C1 [Linsitinib] (partner 1 µM)", 1.07),
]

Record Cc1csc(=NC2CCCCC2)n1/N=C/c1ccc(O)c(O)c1O [MIM1] + CS(=O)(=O)N1CCN(Cc2cc3nc(-c4cccc5[nH]ncc45)nc(N4CCOCC4)c3s2)CC1 [Pictilisib] (partner 1 µM) : what is its relative viability with EBC-1?
0.384

Record CN1CCN(CCOc2cc(OC3CCOCC3)c3c(Nc4c(Cl)ccc5c4OCO5)ncnc3c2)CC1 [Saracatinib] + COc1cc2c(Oc3ccc(NC(=O)C4(C(=O)Nc5ccc(F)cc5)CC4)cc3F)ccnc2cc1OCCCN1CCOCC1 [Foretinib] (partner 0.25 µM) : what is its relative viability with EBC-1?
0.108

====

tested on: LU99A; assay: relative viability (nuclei count vs DMSO), 5 days (fraction); higher = more cells survive; conditions: first compound 0.03162 µM
With a cut-off of 0.8, any relative viability strictly below it is called TRUE; any relative viability meeting it or above is called FALSE.

# compound, answer_label
data = [
    ("Cc1cn(-c2cc(NC(=O)c3ccc(C)c(Nc4nccc(-c5cccnc5)n4)c3)cc(C(F)(F)F)c2)cn1 [Nilotinib] + CC1(C)CCC(c2ccc(Cl)cc2)=C(CN2CCN(c3ccc(C(=O)NS(=O)(=O)c4ccc(N[C@H](CCN5CCOCC5)CSc5ccccc5)c(S(=O)(=O)C(F)(F)F)c4)cc3)CC2)C1 [Navitoclax] (partner 0.5 µM)", "TRUE"),
    ("Cc1cn(-c2cc(NC(=O)c3ccc(C)c(Nc4nccc(-c5cccnc5)n4)c3)cc(C(F)(F)F)c2)cn1 [Nilotinib] + Cc1nc(NC(=O)N2CCC[C@H]2C(N)=O)sc1-c1ccnc(C(C)(C)C(F)(F)F)c1 [Alpelisib] (partner 2 µM)", "TRUE"),
    ("Cc1cn(-c2cc(NC(=O)c3ccc(C)c(Nc4nccc(-c5cccnc5)n4)c3)cc(C(F)(F)F)c2)cn1 [Nilotinib] + O=C(CCCCCCC(=O)Nc1ccccc1)NO [Vorinostat] (partner 1 µM)", "TRUE"),
]

# next compound below
Hello, is relative viability of the following compound strictly smaller than 0.8? Cc1cn(-c2cc(NC(=O)c3ccc(C)c(Nc4nccc(-c5cccnc5)n4)c3)cc(C(F)(F)F)c2)cn1 [Nilotinib] + Nc1ncn([C@H]2C[C@H](O)[C@@H](CO)O2)c(=O)n1 [Decitabine] (partner 2 µM)
FALSE

====

tested on: NCI-H596; test: relative viability (nuclei count vs DMSO), 5 days (fraction); higher = more cells survive; settings: first compound 0.002 µM
quantity_measured: relative viability
// response body must contain only the number

Example entries begin here.
# compound, study_system, relative viability
rows = [
    ("CCNC(=O)c1noc(-c2cc(C(C)C)c(O)cc2O)c1-c1ccc(CN2CCOCC2)cc1 [Luminespib] + NC(=O)Nc1cc(-c2cccc(F)c2)sc1C(=O)N[C@H]1CCCNC1 [AZD7762] (partner 0.2 µM)", "NCI-H596", 1.11),
    ("CCNC(=O)c1noc(-c2cc(C(C)C)c(O)cc2O)c1-c1ccc(CN2CCOCC2)cc1 [Luminespib] + Cc1nc(NC(=O)N2CCC[C@H]2C(N)=O)sc1-c1ccnc(C(C)(C)C(F)(F)F)c1 [Alpelisib] (partner 2 µM)", "NCI-H596", 0.517),
    ("CCNC(=O)c1noc(-c2cc(C(C)C)c(O)cc2O)c1-c1ccc(CN2CCOCC2)cc1 [Luminespib] + CS(=O)(=O)CCNCc1ccc(-c2ccc3ncnc(Nc4ccc(OCc5cccc(F)c5)c(Cl)c4)c3c2)o1 [Lapatinib] (partner 2 µM)", "NCI-H596", 1.18),
]

Now for a further compound.
# get_value(readout='relative viability', item= CCNC(=O)c1noc(-c2cc(C(C)C)c(O)cc2O)c1-c1ccc(CN2CCOCC2)cc1 [Luminespib] + COc1cccc2cc(-c3nc([C@H]4CC[C@H](C(=O)O)CC4)n4ncnc(N)c34)[nH]c12 [OSI-027] (partner 0.5 µM) )
0.797

====

test system: A-427; test: relative viability (nuclei count vs DMSO), 5 days (fraction); higher = more cells survive; settings: first compound 0.03162 µM
Consider the following compounds and their measured relative viability readings.
// response body must contain only the number

Example entries begin here.
# compound, study_system, quantity_measured, numeric_readout
data = [
    ("Cc1cn(-c2cc(NC(=O)c3ccc(C)c(Nc4nccc(-c5cccnc5)n4)c3)cc(C(F)(F)F)c2)cn1 [Nilotinib] + Cc1nc(NC(=O)N2CCC[C@H]2C(N)=O)sc1-c1ccnc(C(C)(C)C(F)(F)F)c1 [Alpelisib] (partner 2 µM)", "A-427", "relative viability", 1.06),
    ("Cc1cn(-c2cc(NC(=O)c3ccc(C)c(Nc4nccc(-c5cccnc5)n4)c3)cc(C(F)(F)F)c2)cn1 [Nilotinib] + CC(=O)c1c(C)c2cnc(Nc3ccc(N4CCNCC4)cn3)nc2n(C2CCCC2)c1=O [Palbociclib] (partner 0.5 µM)", "A-427", "relative viability", 0.552),
    ("Cc1cn(-c2cc(NC(=O)c3ccc(C)c(Nc4nccc(-c5cccnc5)n4)c3)cc(C(F)(F)F)c2)cn1 [Nilotinib] + CC1(C)CCC(c2ccc(Cl)cc2)=C(CN2CCN(c3ccc(C(=O)NS(=O)(=O)c4ccc(N[C@H](CCN5CCOCC5)CSc5ccccc5)c(S(=O)(=O)C(F)(F)F)c4)cc3)CC2)C1 [Navitoclax] (partner 0.5 µM)", "A-427", "relative viability", 0.908),
    ("Cc1cn(-c2cc(NC(=O)c3ccc(C)c(Nc4nccc(-c5cccnc5)n4)c3)cc(C(F)(F)F)c2)cn1 [Nilotinib] + C[C@@H](Oc1cc(-c2cnn(C3CCNCC3)c2)cnc1N)c1c(Cl)ccc(F)c1Cl [Crizotinib] (partner 1 µM)", "A-427", "relative viability", 0.548),
    ("Cc1cn(-c2cc(NC(=O)c3ccc(C)c(Nc4nccc(-c5cccnc5)n4)c3)cc(C(F)(F)F)c2)cn1 [Nilotinib] + CCNC(=O)c1noc(-c2cc(C(C)C)c(O)cc2O)c1-c1ccc(CN2CCOCC2)cc1 [Luminespib] (partner 0.01 µM)", "A-427", "relative viability", 0.724),
]

# get_value(readout='relative viability', item= Cc1cn(-c2cc(NC(=O)c3ccc(C)c(Nc4nccc(-c5cccnc5)n4)c3)cc(C(F)(F)F)c2)cn1 [Nilotinib] + COc1cc2c(Oc3ccc(NC(=O)C4(C(=O)Nc5ccc(F)cc5)CC4)cc3F)ccnc2cc1OCCCN1CCOCC1 [Foretinib] (partner 0.25 µM) )
0.792

# get_value(readout='relative viability', item= Cc1cn(-c2cc(NC(=O)c3ccc(C)c(Nc4nccc(-c5cccnc5)n4)c3)cc(C(F)(F)F)c2)cn1 [Nilotinib] + CS(=O)(=O)CCNCc1ccc(-c2ccc3ncnc(Nc4ccc(OCc5cccc(F)c5)c(Cl)c4)c3c2)o1 [Lapatinib] (partner 2 µM) )
1.08

====

Consider the following compounds and their measured relative viability readings.
tested on: NCI-H1395; assay: relative viability (nuclei count vs DMSO), 5 days (fraction); higher = more cells survive; conditions: first compound 8 µM
// response body must contain only the number

Example entries begin here.
# compound, study_system, relative viability
rows = [
    ("Nc1cccc2c1CN(C1CCC(=O)NC1=O)C2=O (stereo unspecified) [Lenalidomide] + Nc1ncn([C@H]2C[C@H](O)[C@@H](CO)O2)c(=O)n1 [Decitabine] (partner 2 µM)", "NCI-H1395", 0.703),
    ("Nc1cccc2c1CN(C1CCC(=O)NC1=O)C2=O (stereo unspecified) [Lenalidomide] + O=C(CCCCCCC(=O)Nc1ccccc1)NO [Vorinostat] (partner 1 µM)", "NCI-H1395", 0.567),
    ("Nc1cccc2c1CN(C1CCC(=O)NC1=O)C2=O (stereo unspecified) [Lenalidomide] + C[C@]1(O)C[C@@H](c2nc(-c3ccc4ccc(-c5ccccc5)nc4c3)c3c(N)nccn32)C1 [Linsitinib] (partner 1 µM)", "NCI-H1395", 1.03),
    ("Nc1cccc2c1CN(C1CCC(=O)NC1=O)C2=O (stereo unspecified) [Lenalidomide] + CS(=O)(=O)N1CCN(Cc2cc3nc(-c4cccc5[nH]ncc45)nc(N4CCOCC4)c3s2)CC1 [Pictilisib] (partner 1 µM)", "NCI-H1395", 0.569),
]

# get_value(readout='relative viability', item= Nc1cccc2c1CN(C1CCC(=O)NC1=O)C2=O (stereo unspecified) [Lenalidomide] + Nc1nc2[nH]cc(CCc3ccc(C(=O)N[C@@H](CCC(=O)O)C(=O)O)cc3)c2c(=O)[nH]1 [Pemetrexed] (partner 0.2 µM) )
0.874

# get_value(readout='relative viability', item= Nc1cccc2c1CN(C1CCC(=O)NC1=O)C2=O (stereo unspecified) [Lenalidomide] + CC1(C)CCC(c2ccc(Cl)cc2)=C(CN2CCN(c3ccc(C(=O)NS(=O)(=O)c4ccc(N[C@H](CCN5CCOCC5)CSc5ccccc5)c(S(=O)(=O)C(F)(F)F)c4)cc3)CC2)C1 [Navitoclax] (partner 0.5 µM) )
0.978
